Where do these numbers come from? They come from the supplement of paper PMC9170038.

# System: MS2 coat protein
# testName: apparent KD of MS2 coat protein, switch ON state; designed switch direction (-1 OFF switch, 1 ON switch): 1; higher = weaker reporter binding
# cond: FMN input: 0 or 200 uM; Eterna round: R93 (includes R88 designs)
Values of apparent KD of MS2 coat protein greater than or equal to 40 nM map to T; values below map to F.

Consider the worked cases shown below.
inputSequence	cat
AAAAAACAUGAGGAUCACCCAUGUCGAAAGACAUGAGGAUAUGUACAGACUUCGGUCUGUACAGAAGGCAUGUCAA [SS1 - 1020]	F
GAAAAACAUGAGGAUCACCCAUGUGAGAAUAUGGGAGGAUAUACAAGGACGAGAGUCAAGGUAGAAGGCCUAAAAG [Mat - Same State 1 - Eli mod - 29]	T
AAGAAAGUUUACGAGGAUAUGUUCCGCAGAACAUGAGGAUCACCCAUGUGAACAAGAAAGGCGACGCAGAAGGCGUGAGCAAAGA [Anvedi]	F
UAAAAAACGUAUGAGGAUAUCCAAAAUAAAACAUGAGGAUCACCCAUGUGAAUAAAAUAACAAUGGGAGAAGGCAUACGUAUCAU [Mat - Same state - Malcolm Mod - D138]	T
AAAAAAAAGCCCAAGGAUAUCCGGAUGAAGACAUGAGGAUCACCCAUGUGAAAAAAAAAAUAUGAGGAGAAGGUGGGAAAAAAAAA [Esgemaedso]	T

Q: Does the sequence AGGAAACAUGAGGAUCACCCAUGUAAAAGGUGGUUAGGAUAUGCGAUAAUAAAAAUAAUAGCAGAAGGGACAAGAA [Same State of Confusion3 mod Fisker] have recorded apparent KD of MS2 coat protein that is 40 nM or more?
Result: T
